src = PubChem BioAssay (NCI)

# Tested on: LOX IMVI melanoma
# assayProtocol: NCI-60 one-dose screen, 48 h
# cond: 10 µM unless noted
The panel holds about 83,000 compounds, 20% with a hit somewhere; the sample as a whole holds those more often. Activity calls are given as the source filed them. Rule for the calls: active = growth percent below 10; inactive = the rest.
Labels: True for active, False for inactive

>>> categorylabel("Cc1cn(C2CC(N=[N+]=[N-])C(COP(=O)(O)OP(=O)(O)OP(=O)(O)O)O2)c(=O)[nH]c1=O (centres undefined)")
"False"
>>> categorylabel("CCCN1C(=O)CSC1=Nc1ccc2cc3ccc(N=C4SCC(=O)N4CCC)cc3nc2c1")
"False"
>>> categorylabel("CN(C)CCS(=O)(=O)Nc1cc(-c2ccc3ncnc(Nc4ccc(F)c(Cl)c4)c3c2)cnc1Cl")
"True"
>>> categorylabel("CC1(C)N=C(N)N=C(N)N1c1cccc(CCCCc2ccccc2)c1")
"False"
>>> categorylabel("COC(=O)c1oc2c(C(C)=O)c(OCCCN(C)C)ccc2c1C")
"False"
>>> categorylabel("COc1cc(C(=O)NNC(=O)c2ccccc2C(=O)O)cc(OC)c1OC")
"False"
>>> categorylabel("O=C(Nc1ccc(-n2cc(-c3ccncc3)c(-c3ccc(O)c(Cl)c3)n2)cc1)Nc1ccc(Cl)c(C(F)(F)F)c1")
"False"
>>> categorylabel("COC(=O)c1ccc(NC(N)=NCC(C)(C)COc2ccc(C(F)(F)F)cc2)nc1")
"False"
>>> categorylabel("COc1cccc(C2CC(c3cc(OC)c(OC)c(OC)c3)=NN2)c1 (centres undefined)")
"False"
